# study_target: furin, P09958;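 note: purified furin at 1:10 enzyme:substrate in 50 mM HEPES pH 7.5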
# Sequence (P09958 whole entry): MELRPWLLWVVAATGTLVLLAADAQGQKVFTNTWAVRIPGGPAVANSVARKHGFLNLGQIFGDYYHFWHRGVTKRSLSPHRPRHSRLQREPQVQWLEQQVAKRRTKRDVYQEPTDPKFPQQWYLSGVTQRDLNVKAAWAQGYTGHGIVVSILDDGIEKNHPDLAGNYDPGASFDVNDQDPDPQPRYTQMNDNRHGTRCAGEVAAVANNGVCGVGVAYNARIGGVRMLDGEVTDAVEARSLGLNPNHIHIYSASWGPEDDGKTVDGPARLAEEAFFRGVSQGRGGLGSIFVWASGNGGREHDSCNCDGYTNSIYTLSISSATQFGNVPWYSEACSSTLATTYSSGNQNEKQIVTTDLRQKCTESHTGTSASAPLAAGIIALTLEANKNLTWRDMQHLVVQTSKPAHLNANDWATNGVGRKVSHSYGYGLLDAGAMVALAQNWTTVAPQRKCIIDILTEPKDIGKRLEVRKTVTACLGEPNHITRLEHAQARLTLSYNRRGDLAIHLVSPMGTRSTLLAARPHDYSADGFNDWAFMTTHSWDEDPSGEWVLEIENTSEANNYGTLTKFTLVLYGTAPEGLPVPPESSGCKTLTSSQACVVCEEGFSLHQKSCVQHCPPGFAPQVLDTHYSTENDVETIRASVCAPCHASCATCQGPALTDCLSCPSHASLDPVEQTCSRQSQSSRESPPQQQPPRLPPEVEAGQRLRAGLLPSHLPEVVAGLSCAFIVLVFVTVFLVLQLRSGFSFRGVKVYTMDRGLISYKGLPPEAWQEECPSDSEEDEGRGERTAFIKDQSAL
# protocol_description: furin cleavage Z-score vs untreated control; higher = more cleavage, active = 3.5 or more, inactive = 1 or less, 8 variable residues between constant flanks
# experimental_conditions: 15 min
This is one part of the list. How many sequences the whole screen found active is unknown.
recorded_endpoint: furin cleavage Z-score
Field format: numeric only.

In [3]: df
Out[3]:
                      seq_text  test_value
0  CAKYLFNWAVAGNASASA [HC1632]       0.619
1  CAELVVCCSMAGNASASA [HC2125]      -0.743

Data request: Which furin cleavage Z-score reading was recorded for the sequence CAASPRVARFAGNASASA [FS-1586] ?
Data returned: 7.05

Data request: Which furin cleavage Z-score reading was recorded for the sequence CACGSSDLYLAGNASASA [HC723] ?
Data returned: -1.54

Data request: Which furin cleavage Z-score reading was recorded for the sequence CATFWAKHMWAGNASASA [HC1040] ?
Data returned: -0.474

Data request: Which furin cleavage Z-score reading was recorded for the sequence CAAGHAVGIFAGNASASA [HC747] ?
Data returned: -0.922

Data request: Which furin cleavage Z-score reading was recorded for the sequence CASCQRRTRFAGNASASA [FS-379] ?
Data returned: 1.81
